biological target: Integrin beta-1 (Homo sapiens) + Integrin alpha-4 (Homo sapiens) (UniProt P13612+P05556); assay: alpha4beta1 integrin LIBS antibody binding reduction – U937 cells, HUTS-21 mAb, flow cytometry, validation set, VLA-4 allosteric modulator project, pilot screen (AID 2674); details: HUTS-21 LIBS mAb binding, at 6.7 µM, active compounds read high, binding induced by LDV ligand;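 also: antibody binding induced by the VLA-4 ligand LDV present at three times its Kd; 0% = LDV ligand with antibody and no compound and 100% = antibody without LDV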
Sequence (P05556 whole entry, looked up): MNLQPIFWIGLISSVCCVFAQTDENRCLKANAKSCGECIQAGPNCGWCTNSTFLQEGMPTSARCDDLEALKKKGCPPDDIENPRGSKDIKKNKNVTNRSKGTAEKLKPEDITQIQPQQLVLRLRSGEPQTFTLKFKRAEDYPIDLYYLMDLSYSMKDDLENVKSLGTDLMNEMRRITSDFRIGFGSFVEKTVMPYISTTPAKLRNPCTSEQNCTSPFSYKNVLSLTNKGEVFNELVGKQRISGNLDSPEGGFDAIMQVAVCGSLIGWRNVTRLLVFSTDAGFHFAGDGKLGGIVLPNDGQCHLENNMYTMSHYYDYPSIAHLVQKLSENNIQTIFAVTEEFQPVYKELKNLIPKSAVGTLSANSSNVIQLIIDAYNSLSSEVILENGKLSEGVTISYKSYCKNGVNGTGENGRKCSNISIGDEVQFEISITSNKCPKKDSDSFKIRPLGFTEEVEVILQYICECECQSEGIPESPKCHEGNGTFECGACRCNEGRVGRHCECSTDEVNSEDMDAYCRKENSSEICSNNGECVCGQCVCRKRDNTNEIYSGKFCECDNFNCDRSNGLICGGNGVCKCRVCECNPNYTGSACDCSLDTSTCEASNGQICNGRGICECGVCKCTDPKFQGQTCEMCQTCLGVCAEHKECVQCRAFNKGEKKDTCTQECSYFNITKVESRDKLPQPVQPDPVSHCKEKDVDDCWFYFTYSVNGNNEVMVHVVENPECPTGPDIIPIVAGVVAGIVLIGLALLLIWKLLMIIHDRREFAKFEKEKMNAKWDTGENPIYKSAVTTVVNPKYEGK
Sequence (P13612 whole entry, looked up): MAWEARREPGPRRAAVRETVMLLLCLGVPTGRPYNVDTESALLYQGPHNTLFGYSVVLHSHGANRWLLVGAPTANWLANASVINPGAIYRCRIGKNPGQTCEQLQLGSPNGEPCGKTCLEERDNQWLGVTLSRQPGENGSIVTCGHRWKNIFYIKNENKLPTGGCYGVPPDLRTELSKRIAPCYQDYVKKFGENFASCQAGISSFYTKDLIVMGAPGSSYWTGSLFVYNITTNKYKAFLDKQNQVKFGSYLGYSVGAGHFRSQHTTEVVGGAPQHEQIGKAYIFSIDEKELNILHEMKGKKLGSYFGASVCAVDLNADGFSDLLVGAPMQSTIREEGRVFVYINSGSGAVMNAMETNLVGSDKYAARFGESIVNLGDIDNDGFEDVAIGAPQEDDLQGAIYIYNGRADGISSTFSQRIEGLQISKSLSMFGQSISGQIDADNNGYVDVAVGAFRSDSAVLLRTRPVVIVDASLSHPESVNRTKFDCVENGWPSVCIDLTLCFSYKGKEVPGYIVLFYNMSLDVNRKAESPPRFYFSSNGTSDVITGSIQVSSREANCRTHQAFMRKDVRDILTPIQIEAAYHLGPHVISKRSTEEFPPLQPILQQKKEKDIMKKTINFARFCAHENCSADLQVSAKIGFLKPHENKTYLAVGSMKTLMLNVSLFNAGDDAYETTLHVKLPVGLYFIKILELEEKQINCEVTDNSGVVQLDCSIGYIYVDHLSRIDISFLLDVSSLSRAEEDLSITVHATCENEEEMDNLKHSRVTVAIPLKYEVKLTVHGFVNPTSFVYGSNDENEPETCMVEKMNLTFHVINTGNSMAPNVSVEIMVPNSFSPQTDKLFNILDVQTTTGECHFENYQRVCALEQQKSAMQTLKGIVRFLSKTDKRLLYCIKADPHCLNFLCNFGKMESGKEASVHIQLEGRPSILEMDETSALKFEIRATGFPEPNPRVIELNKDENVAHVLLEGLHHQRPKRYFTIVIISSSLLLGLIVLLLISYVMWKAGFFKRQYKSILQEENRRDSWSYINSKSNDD
Active and inactive are the calls of the source.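 The calls were made as follows: active = inhibition above 50%, about 3 SD of the validation set; inactive = the rest.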
measured_quantity: inhibition

1. CCCCOn1c(C)c(C(C)=O)c2c3no[n+]([O-])c3ccc21 | -12.7% (inactive)
2. CC(=O)OCC(=O)[C@@]1(O)CC[C@H]2[C@@H]3CCC4=CC(=O)CC[C@]4(C)[C@H]3[C@@H](O)C[C@@]21C | -4.6% (inactive)
3. Cc1ccc([N+](=O)[O-])cc1NC1OC(CO)C(O)C1O (stereo not given) | -16.4% (inactive)
4. CN(C)[C@@H]1C(=O)C(C(N)=O)=C(O)[C@@]2(O)C(=O)C3=C(O)c4c(O)ccc(Cl)c4[C@@H](O)[C@H]3C[C@@H]12 | -7.93% (inactive)

Below: the item to evaluate.
Ask | I'd like to know its inhibition. The molecule in question is CCOc1cc2c3c(c1)C(C)=CC(C)(C)N3C(=O)C2=O
Reply | 35.1% (inactive)
